experiment: In vivo pharmacokinetics, plasma and brain
Parameters: species or system Balb/C male mice
run-parameters: male, Balb/C, mouse, plasma, po, 250 mg/kg, plasma, 250 mg/kg intragastric, mean of mice groups; read-out: AUC0-7
test-readout: AUC(0-t) (ng·h/mL)
Express the result in ng·h/mL but write the number alone.

Kindly note the recorded AUC(0-t) for Nc1nc(Nc2ccc(Cl)cc2)nn1S(=O)(=O)c1ccc2ccccc2c1 , which is 4050

###

target-entity: UniProt:P05177
Sequence (P05177 1-516): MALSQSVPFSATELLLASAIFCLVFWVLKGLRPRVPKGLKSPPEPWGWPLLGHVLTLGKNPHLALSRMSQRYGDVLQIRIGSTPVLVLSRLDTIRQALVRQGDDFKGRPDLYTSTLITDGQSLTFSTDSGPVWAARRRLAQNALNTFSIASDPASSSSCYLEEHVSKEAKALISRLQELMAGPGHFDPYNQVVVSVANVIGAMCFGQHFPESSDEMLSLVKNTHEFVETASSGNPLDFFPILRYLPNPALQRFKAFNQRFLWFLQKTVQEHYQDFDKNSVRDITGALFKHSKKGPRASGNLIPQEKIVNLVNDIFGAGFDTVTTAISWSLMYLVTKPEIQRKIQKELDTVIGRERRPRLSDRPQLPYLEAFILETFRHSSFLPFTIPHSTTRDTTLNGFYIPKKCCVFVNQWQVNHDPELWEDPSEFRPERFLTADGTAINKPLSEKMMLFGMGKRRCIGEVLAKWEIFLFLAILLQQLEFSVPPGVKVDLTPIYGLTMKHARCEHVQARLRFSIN
pIC50: −log10 of the molar value.
test-readout: pIC50

Kindly note the recorded pIC50 for N#C/C=C/c1ccc2c(S(=O)(=O)n3nc(Nc4ccc(C#N)c(Cl)c4)nc3N)cccc2c1 [Compound 20] , which is < 4.30
